Test system: Fusarium sp.
Assay: Concentration for 90% control of pathogen on corn seeds (Table V), Fusarium sp.
Format: cell-based
Settings: 5 days after treatment

- compound: "CCCC(=O)OCOCOC(=O)CCC [Oxybismethylene Bisbutyrate]"
  Conc. for 90% Control, Fusarium sp., oz./100 lbs.: 1.0
- compound: "CC(C)C(=O)OCOC(=O)C(C)C [Methylene Bisisobutyrate]"
  Conc. for 90% Control, Fusarium sp., oz./100 lbs.: 2.0
- compound: "CCC(=O)OCOC(=O)CC [Methylene Bispropionate]"
  Conc. for 90% Control, Fusarium sp., oz./100 lbs.: 0.5
- compound: "CCC(=O)O [Propionic acid, reference compound]"
  Conc. for 90% Control, Fusarium sp., oz./100 lbs.: 9.6
- compound: "CC(C)C(=O)OCOCOC(=O)C(C)C [Oxybismethylene Bisisobutyrate]"
  Conc. for 90% Control, Fusarium sp., oz./100 lbs.: 0.88

Provenance of the data: patent US4123552A
